# study_system: T1, apical domain of cynomolgus CD71 (cynomolgus, UniProt A0A2K5X958 189-383)
# T1 construct: domain: apical domain; also called Cyno apical domain
# T1 sequence (A0A2K5X958 entry or part of it): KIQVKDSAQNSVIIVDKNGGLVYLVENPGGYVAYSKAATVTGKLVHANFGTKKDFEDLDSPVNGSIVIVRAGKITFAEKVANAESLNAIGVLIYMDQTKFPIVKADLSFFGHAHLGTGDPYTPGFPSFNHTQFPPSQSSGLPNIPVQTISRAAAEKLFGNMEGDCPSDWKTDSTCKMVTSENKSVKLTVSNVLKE
# procedure_summary: primary ELISA, signal ratio to HSA
observable: Cyno apical domain:HSA

Take a look at these entries with their results.
Query: Provide one value: measured Cyno apical domain:HSA of CD71-binding FN3 domain of SEQ ID NO: 185 (designed binder) MGSLPAPKNLVVSRVTEDSARLSWTAPDAAFDSFEISYWEHTFNGEAIILFVPGSERSYDLTGLKPGTEYWVQIGGVKGGNWSAPLSAIFTT
Reply: 267

Query: Quick one: give measured Cyno apical domain:HSA for CD71-binding FN3 domain of SEQ ID NO: 180 (designed binder) MSLPAPKNLVVSRVTEDSARLSWTAPDAAFDSFFIGYLEPQPPGEAISLYVPGSERSYDLTGLKPGTEYNVTIQGVKGGFPSEPLIANFTT
Reply: 251

Query: State its Cyno apical domain:HSA: CD71-binding FN3 domain of SEQ ID NO: 199 (designed binder) MSLPAPKNLVVSRVTEDSARLSWTAPDAAFDSFEIGYFENLYLGEAIVLTVPGYERSYDLTGLKPGTEYWVQIGGVKGGNWSAPLSAIFTT
Reply: 187

Query: # return recorded Cyno apical domain:HSA for entry CD71-binding FN3 domain of SEQ ID NO: 147 (designed binder) MSLPAPKNLVVSRVTEDSARLSWTAPDAAFDSFFIGYLEPQPPGEAIELFVPGSERSYDLTGLKPGTEYNVTIQGVKGGFPSGPLIASFTT
Reply: 208

Query: Indicate its recorded Cyno apical domain:HSA; the binder in question is CD71-binding FN3 domain of SEQ ID NO: 131 (designed binder) MSLPAPKNLVVSRVTEDSARLSWTAPDAAFDSFEIAYFENDWAGEAIVLTVPGSERSYDLTGLKPGTEYVVFIGGVKGGDFSPPLSAIFTT
Reply: 145

1 = CD71-binding FN3 domain of SEQ ID NO: 170 (designed binder) MSLPAPKNLVVSRVTEDSARLSWTAPDAAFDSFEIGYFENLYLGEAIVLTVPGSERSYDLTGLKPGTEYWVQIGGVKGGNWSTPLSAIFTT
2 = CD71-binding FN3 domain of SEQ ID NO: 151 (designed binder) MSLPAPKNLVVSRITEDSARLSWTAPDAAFDSFEIAYFETCRTGEAIVLTVPGSERSYDLTGLKPGTEYRVWIGGVKGGVWSRPLSAIVTT
3 = CD71-binding FN3 domain of SEQ ID NO: 120 (designed binder) MSLPAPKNLVVSRVTEDSARLSWTAPDAAFDSFEIAYQELSLWGEAIVLTVPGSERSYDLTGLKPGTEYWVQIGGVKGGEWSAPLSAIFTT
4 = CD71-binding FN3 domain of SEQ ID NO: 191 (designed binder) MSLPAPKNLVVSRVTEDSARLSWTAPDAAFDSFEIGYFENLYLGEAIVLTVPGSERSYDLAGLKPGTEYWVQIGGVKGGNWSAPLSAIFTT
Query: Sort these binders on Cyno apical domain:HSA so the largest reading comes first. Provide the ranking by listing each label in its place in the requested order.
Reply: 3, 1, 4, 2
(3: 534, 1: 166, 4: 109, 2: 28)
